Consider the following compounds; for each one, report its TGI.
# System: IGROV1 ovarian
# ASSAY_COMMENT: NCI tumour cell line growth inhibition, 48 h

Given `C=C(C)[C@@H]1CCc2c(O)c(O)c(=O)cc(C)c2C1` , respond with its TGI.
> 100 µM

Given `Cc1cc(C)c2c(c1)C/C(=C\c1cccc(C)c1C(=O)O)C2=O` , respond with its TGI.
> 100 µM

Given NC1CCCCC1NCCNC1CCCCC1N (stereo not drawn) , respond with its TGI.
> 100 µM

* * *

Consider the following compounds; for each one, report its TGI.
# Test system: T-47D breast
# ASSAY_COMMENT: NCI tumour cell line growth inhibition, 48 h

Given C=C(C(=O)OC)[C@@H]1CC2OC1C(=O)C(C)CCC/C(C)=C/CC[C@@]2(C)O (some centres not stated) , respond with its TGI.
> 100 µM

Given `N#C/C(=C/N1CCN(C(=O)c2ccco2)C1=S)C(=O)Nc1ccc(Cl)cc1` , respond with its TGI.
> 50 µM

Given `COC(=O)/C=C\n1nc(Br)c(=O)[nH]c1=O` , respond with its TGI.
> 100 µM

Given `O=C(O)CSC1=NNC2(C(=O)N1)c1ccccc1-c1ccccc12` , respond with its TGI.
> 10 µM

Given `O=c1cc(-c2ccccc2)oc2c1ccc1[nH]c3ccccc3c(=O)c12` , respond with its TGI.
> 100 µM

Given `O=C1CCCCC/C1=C\c1cccc(F)c1` , respond with its TGI.
> 100 µM

Given C=CC1C(CC2OC(CO)C(O)C(O)C2O)OC=C2C(=O)OCCC21O (configuration not stated) , respond with its TGI.
> 100 µM
